- TARGET_OF_ASSAY: hNR2B (Homo sapiens, UniProt Q05586+Q13224)
- Construct: expressed in transfected cells; host or cells: Xenopus laevis oocytes, cRNA-injected
- Sequence (Q13224 27-1484, other chains not shown): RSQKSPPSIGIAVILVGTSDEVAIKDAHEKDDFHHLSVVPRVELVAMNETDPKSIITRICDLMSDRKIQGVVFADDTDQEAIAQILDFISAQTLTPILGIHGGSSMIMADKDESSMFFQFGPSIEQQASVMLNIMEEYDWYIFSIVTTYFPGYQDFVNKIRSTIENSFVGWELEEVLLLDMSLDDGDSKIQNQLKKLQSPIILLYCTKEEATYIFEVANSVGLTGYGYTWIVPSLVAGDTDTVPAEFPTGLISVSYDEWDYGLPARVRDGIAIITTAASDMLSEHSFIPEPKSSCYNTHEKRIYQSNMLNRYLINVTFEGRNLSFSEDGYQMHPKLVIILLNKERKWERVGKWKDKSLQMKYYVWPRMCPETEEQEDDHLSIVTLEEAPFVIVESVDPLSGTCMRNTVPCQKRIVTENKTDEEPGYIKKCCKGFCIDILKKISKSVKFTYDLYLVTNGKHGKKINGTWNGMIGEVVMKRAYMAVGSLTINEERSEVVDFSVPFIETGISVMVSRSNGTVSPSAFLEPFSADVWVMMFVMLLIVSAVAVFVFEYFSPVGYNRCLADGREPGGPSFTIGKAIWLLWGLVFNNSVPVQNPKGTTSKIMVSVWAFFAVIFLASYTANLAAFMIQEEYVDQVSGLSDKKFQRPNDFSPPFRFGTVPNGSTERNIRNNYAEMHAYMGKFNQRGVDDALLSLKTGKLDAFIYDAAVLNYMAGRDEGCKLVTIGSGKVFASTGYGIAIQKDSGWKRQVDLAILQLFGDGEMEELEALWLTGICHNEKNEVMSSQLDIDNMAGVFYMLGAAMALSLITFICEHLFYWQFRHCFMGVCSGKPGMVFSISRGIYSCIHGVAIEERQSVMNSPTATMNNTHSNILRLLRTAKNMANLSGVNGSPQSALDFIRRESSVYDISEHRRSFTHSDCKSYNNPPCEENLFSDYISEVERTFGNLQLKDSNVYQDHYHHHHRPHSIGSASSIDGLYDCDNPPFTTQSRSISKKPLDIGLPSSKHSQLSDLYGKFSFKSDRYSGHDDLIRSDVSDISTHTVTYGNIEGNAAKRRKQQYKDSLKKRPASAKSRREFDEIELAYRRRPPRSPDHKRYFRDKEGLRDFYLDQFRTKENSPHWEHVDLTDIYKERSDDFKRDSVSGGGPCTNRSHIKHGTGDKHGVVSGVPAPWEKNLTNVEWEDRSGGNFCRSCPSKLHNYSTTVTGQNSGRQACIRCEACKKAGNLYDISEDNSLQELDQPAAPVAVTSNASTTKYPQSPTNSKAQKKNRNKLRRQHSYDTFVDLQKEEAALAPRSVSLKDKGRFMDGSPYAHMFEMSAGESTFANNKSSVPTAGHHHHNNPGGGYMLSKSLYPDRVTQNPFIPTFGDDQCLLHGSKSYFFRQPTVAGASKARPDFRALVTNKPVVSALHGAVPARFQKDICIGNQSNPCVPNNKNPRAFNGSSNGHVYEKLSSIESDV
- ASSAY_INFO: Electrophysiology NMDA receptor experiments: two electrode voltage-clamp in Xenopus laevis oocytes, hNR2B IC50
- Format: cell-based
- CONDITION_DETAILS: hNR2B activity class, 50 μM glutamate, 30 μM glycine, read-out: Activity
pIC50: −log10 of the molar value.
MEASURED_METRIC: pIC50

Some compounds with known pIC50 results, for comparison:
compound="O=C1COc2cc(OCc3nnc(Nc4ccc(Cl)c(Cl)c4)o3)ccc2N1 [Example 125]" measurement="6.00 to 6.70"
compound="Oc1ccc(OCc2nc(Nc3ccc(C(F)(F)F)cc3)no2)cc1 [Example 185]" measurement="5.00 to 6.00"
compound="Fc1ccc(Nc2noc(CCc3ccc4[nH]ncc4c3)n2)cc1C(F)F [Example 216]" measurement="6.00 to 6.70"
compound="O=c1ccc2cc(OCc3nnc(Nc4cccc(Oc5ccccc5)c4)o3)ccc2[nH]1 [Example 89]" measurement="6.00 to 6.70"
compound="O=c1ccc2cc(OCc3nnc(NCc4ccccc4F)o3)ccc2[nH]1 [Example 100]" measurement="5.00 to 6.00"
compound="CC1(C)Cc2cc(OCc3nnc(Nc4ccc(Cl)c(F)c4)o3)ccc2NC1=O [Example 83]" measurement="5.00 to 6.00"

Enquiry: Item CCCc1ccc(Nc2cc(COc3ccc4[nH]c(=O)ccc4c3)on2)cc1 [Example 266] has what recorded pIC50?
Return: < 5.00

Enquiry: // lookup pIC50 for O=c1ccc2cc(OCc3nnc(Nc4ccc(F)c(C(F)F)c4)o3)ccc2[nH]1 [Example 99]
Return: 6.00 to 6.70

Enquiry: What does the data say about its pIC50? Entry: O=c1ccc2cc(OCc3nc(Nc4ccc(Cl)c(Cl)c4)no3)ccc2[nH]1 [Example 178]
Return: 6.00 to 6.70

* * *

- TARGET_OF_ASSAY: hNR2B (Homo sapiens, UniProt Q05586+Q13224)
- Construct: expressed in transfected cells; host or cells: Xenopus laevis oocytes, cRNA-injected
- ASSAY_INFO: Electrophysiology NMDA receptor experiments: two electrode voltage-clamp in Xenopus laevis oocytes, hNR2B IC50
- Format: cell-based
- CONDITION_DETAILS: hNR2B activity class, 50 μM glutamate, 30 μM glycine, read-out: Activity
Measured IC50 by item

smiles_input=O=C1CCc2cc(OCc3nc(Nc4ccc(OC(F)F)cc4)no3)ccc2N1 target_of_assay="hNR2B (Homo sapiens, UniProt Q05586+Q13224)" measurement="0.201 to 1 µM"
smiles_input=O=c1ccc2cc(OCc3nnc(NCc4ccccc4Cl)o3)ccc2[nH]1 target_of_assay="hNR2B (Homo sapiens, UniProt Q05586+Q13224)" measurement="1 to 10 µM"
smiles_input=O=c1ccc2cc(OCc3nnc(Nc4c(Cl)cccc4Cl)o3)ccc2[nH]1 target_of_assay="hNR2B (Homo sapiens, UniProt Q05586+Q13224)" measurement="> 10 µM"
smiles_input=O=C1CCc2cc(OCc3nc(Nc4ccc(Cl)cc4)no3)ccc2N1 target_of_assay="hNR2B (Homo sapiens, UniProt Q05586+Q13224)" measurement="1 to 10 µM"
smiles_input=Cc1cc(Nc2cc(COc3ccc4[nH]c(=O)ccc4c3)on2)ccc1F target_of_assay="hNR2B (Homo sapiens, UniProt Q05586+Q13224)" measurement="1 to 10 µM"

Enquiry: // lookup IC50 | system=hNR2B (Homo sapiens, UniProt Q05586+Q13224) | key= O=C1CCc2cc(CCc3nnc(Nc4ccc(OC(F)F)cc4)o3)ccc2N1
Return: < 0.2 µM

Enquiry: Find the measured IC50: item O=C1CCc2cc(CCc3nc(Nc4ccc(Cl)c(Cl)c4)no3)ccc2N1 , target or system hNR2B (Homo sapiens, UniProt Q05586+Q13224).
Return: > 10 µM

Enquiry: What value of IC50 on hNR2B (Homo sapiens, UniProt Q05586+Q13224) does Cc1cccc(Nc2nnc(COc3ccc4[nH]c(=O)ccc4c3)o2)c1 have?
Return: 1 to 10 µM

Enquiry: Request - read-out IC50 | tested on hNR2B (Homo sapiens, UniProt Q05586+Q13224) | compound COc1ccc(Nc2nnc(COc3ccc4[nH]c(=O)ccc4c3)o2)cc1F
Return: 0.201 to 1 µM

Enquiry: Please tell me: IC50 of Oc1ccc(Cc2nnc(NCc3ccc(Cl)c(Cl)c3)o2)cc1 , system hNR2B (Homo sapiens, UniProt Q05586+Q13224)?
Return: 1 to 10 µM

Enquiry: Give the reported IC50 for O=C1CCc2cc(OCc3nnc(Nc4ccc(OC(F)(F)F)cc4)o3)ccc2N1 (system: hNR2B (Homo sapiens, UniProt Q05586+Q13224)).
Return: 0.201 to 1 µM

Enquiry: Lab note: need IC50 with hNR2B (Homo sapiens, UniProt Q05586+Q13224) for entry CCn1c(COc2ccc3[nH]c(=O)ccc3c2)nnc1Nc1ccc(OC(F)F)cc1 , please look it up.
Return: < 0.2 µM

Enquiry: Query the reported IC50 for hNR2B (Homo sapiens, UniProt Q05586+Q13224); item: Cc1cc(CNc2nnc(COc3ccc4[nH]c(=O)ccc4c3)o2)ccc1F
Return: 0.201 to 1 µM

Enquiry: Enter reported IC50 observed with hNR2B (Homo sapiens, UniProt Q05586+Q13224) for O=C1CCc2cc(OCc3nnc(NCc4ccc(OC(F)F)cc4)o3)ccc2N1
Return: < 0.2 µM

Enquiry: # returns recorded IC50 (system: hNR2B (Homo sapiens, UniProt Q05586+Q13224)) for O=c1ccc2cc(OCc3nnc(Nc4ccc(Cl)c(Cl)c4)o3)ccc2[nH]1
Return: < 0.2 µM

Enquiry: Which measured IC50 belongs to O=C1CCc2cc(CCc3nnc(Nc4ccc(Cl)c(F)c4)o3)ccc2N1 , tested on hNR2B (Homo sapiens, UniProt Q05586+Q13224)?
Return: < 0.2 µM

Enquiry: Param readout= IC50; system= hNR2B (Homo sapiens, UniProt Q05586+Q13224); entry= Clc1ccc(CNc2noc(COc3ccc4[nH]ncc4c3)n2)cc1 ; returns value.
Return: 1 to 10 µM

Enquiry: Lab note: need IC50 with hNR2B (Homo sapiens, UniProt Q05586+Q13224) for entry Cn1c(COc2ccc3[nH]c(=O)ccc3c2)nnc1Nc1ccc(OC(F)(F)F)cc1 , please look it up.
Return: < 0.2 µM
